target: Tyrosine-protein phosphatase non-receptor type 11 (Homo sapiens)
Sequence (Q06124 whole entry): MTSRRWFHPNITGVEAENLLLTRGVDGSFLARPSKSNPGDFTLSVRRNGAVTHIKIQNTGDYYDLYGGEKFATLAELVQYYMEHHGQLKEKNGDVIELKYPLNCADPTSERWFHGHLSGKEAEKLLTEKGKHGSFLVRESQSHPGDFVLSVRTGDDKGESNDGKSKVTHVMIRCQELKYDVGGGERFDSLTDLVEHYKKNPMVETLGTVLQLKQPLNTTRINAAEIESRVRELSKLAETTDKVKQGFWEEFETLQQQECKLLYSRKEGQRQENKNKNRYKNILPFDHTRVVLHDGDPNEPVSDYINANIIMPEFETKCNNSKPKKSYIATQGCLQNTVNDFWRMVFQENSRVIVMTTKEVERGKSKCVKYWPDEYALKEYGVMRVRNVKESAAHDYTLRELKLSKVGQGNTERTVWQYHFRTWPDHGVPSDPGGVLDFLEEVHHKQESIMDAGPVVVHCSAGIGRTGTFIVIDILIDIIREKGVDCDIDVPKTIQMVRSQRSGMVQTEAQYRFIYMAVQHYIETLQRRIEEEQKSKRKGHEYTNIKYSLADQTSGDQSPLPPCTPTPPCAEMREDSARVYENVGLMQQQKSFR
pIC50: −log10 of the molar value.
I'd appreciate it if you could supply pIC50 values for the items below.

Exercise: GET /values?readout=pIC50&item= `C#CCNc1nc(Cl)c2ncn(CC#C)c2n1`
Solution: < 4.10

Exercise: Would you kindly repeat that for `COc1nc(N)nc2c1ncn2Cc1cn(C[C@H]2O[C@H](OC)[C@H](OCc3ccccc3)[C@@H](OCc3ccccc3)[C@H]2OCc2ccccc2)nn1` ?
Solution: < 4.10

Exercise: Would you kindly repeat that for `CO[C@H]1O[C@H](Cn2cc(CNc3nc(Cl)c4ncn(Cc5cn(C[C@H]6O[C@H](OC)[C@H](OCc7ccccc7)[C@@H](OCc7ccccc7)[C@@H]6OCc6ccccc6)nn5)c4n3)nn2)[C@@H](OCc2ccccc2)[C@H](OCc2ccccc2)[C@H]1OCc1ccccc1` ?
Solution: < 4.10

###

// Receptor-type tyrosine-protein phosphatase F (Homo sapiens, UniProt P10586) IC50 records

Exercise: GET /values?readout=IC50&item= `COc1nc(N)nc2c1ncn2Cc1cn(C[C@H]2O[C@H](OC)[C@H](OCc3ccccc3)[C@@H](OCc3ccccc3)[C@H]2OCc2ccccc2)nn1`
Solution: > 80 µM

Exercise: Would you kindly repeat that for `CC(=O)OC[C@H]1O[C@H](n2cc(Cn3cnc4c(Cl)nc(N)nc43)nn2)[C@H](OC(C)=O)[C@@H](OC(C)=O)[C@@H]1OC(C)=O` ?
Solution: > 80 µM

Exercise: Would you kindly repeat that for `COc1nc(N)nc2c1ncn2Cc1cn(C[C@H]2O[C@H](OC)[C@H](OCc3ccccc3)[C@@H](OCc3ccccc3)[C@@H]2OCc2ccccc2)nn1` ?
Solution: > 80 µM

###

// Tyrosine-protein phosphatase non-receptor type 11 (Homo sapiens, UniProt Q06124) pIC50 records
pIC50: −log10 of the molar value.

Exercise: GET /values?readout=pIC50&item= `CO[C@H]1O[C@H](Cn2cc(Cn3cnc4c(Cl)nc(N)nc43)nn2)[C@@H](OCc2ccccc2)[C@H](OCc2ccccc2)[C@H]1OCc1ccccc1`
Solution: < 4.10

Exercise: Would you kindly repeat that for `COc1nc(N)nc2c1ncn2Cc1cn(C[C@H]2O[C@H](OC)[C@H](OCc3ccccc3)[C@@H](OCc3ccccc3)[C@@H]2OCc2ccccc2)nn1` ?
Solution: < 4.10

Exercise: Would you kindly repeat that for `CC(=O)OC[C@H]1O[C@H](n2cc(CNc3nc(Cl)c4ncn(Cc5cn([C@H]6O[C@H](COC(C)=O)[C@@H](OC(C)=O)[C@H](OC(C)=O)[C@H]6OC(C)=O)nn5)c4n3)nn2)[C@H](OC(C)=O)[C@@H](OC(C)=O)[C@@H]1OC(C)=O` ?
Solution: < 4.10

Exercise: Would you kindly repeat that for `CC(=O)OC[C@H]1O[C@H](n2cc(Cn3cnc4c(Cl)nc(N)nc43)nn2)[C@H](OC(C)=O)[C@@H](OC(C)=O)[C@@H]1OC(C)=O` ?
Solution: < 4.10

Exercise: Would you kindly repeat that for `C#CCn1cnc2c(Cl)nc(N)nc21` ?
Solution: < 4.10

Exercise: Would you kindly repeat that for `CO[C@H]1O[C@H](Cn2cc(Cn3cnc4c(Cl)nc(N)nc43)nn2)[C@H](OCc2ccccc2)[C@H](OCc2ccccc2)[C@H]1OCc1ccccc1` ?
Solution: < 4.10

###

// Tyrosine-protein phosphatase non-receptor type 1 (Homo sapiens, UniProt P18031) IC50 records
// return numeric value only (unit: µM, not printed)

Exercise: Missing value: IC50, Tyrosine-protein phosphatase non-receptor type 1 (Homo sapiens, UniProt P18031), entry `COc1nc(NCc2cn(C[C@H]3O[C@H](OC)[C@H](OCc4ccccc4)[C@@H](OCc4ccccc4)[C@H]3OCc3ccccc3)nn2)nc2c1ncn2Cc1cn(C[C@H]2O[C@H](OC)[C@H](OCc3ccccc3)[C@@H](OCc3ccccc3)[C@H]2OCc2ccccc2)nn1` . Fill in?
Solution: 1.5

Exercise: Would you kindly repeat that for `C#CCNc1nc(Cl)c2ncn(CC#C)c2n1` ?
Solution: 75.7

Exercise: Would you kindly repeat that for `C#CCn1cnc2c(Cl)nc(N)nc21` ?
Solution: 232

###

Target sequence: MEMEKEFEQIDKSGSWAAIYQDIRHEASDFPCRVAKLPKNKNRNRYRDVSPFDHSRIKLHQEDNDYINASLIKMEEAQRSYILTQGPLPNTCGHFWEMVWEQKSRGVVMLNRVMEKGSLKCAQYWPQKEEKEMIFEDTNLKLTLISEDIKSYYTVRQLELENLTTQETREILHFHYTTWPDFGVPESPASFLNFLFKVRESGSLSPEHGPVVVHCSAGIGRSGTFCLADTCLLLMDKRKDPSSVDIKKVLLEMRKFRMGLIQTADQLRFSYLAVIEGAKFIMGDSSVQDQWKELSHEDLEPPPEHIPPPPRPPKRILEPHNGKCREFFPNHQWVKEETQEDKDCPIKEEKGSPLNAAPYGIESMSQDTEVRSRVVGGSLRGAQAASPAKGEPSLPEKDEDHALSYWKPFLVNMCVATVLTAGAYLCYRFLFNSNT
pIC50: −log10 of the molar value.
measurement-label: pIC50

Exercise: GET /values?readout=pIC50&item= `COc1nc(N)nc2c1ncn2Cc1cn(C[C@H]2O[C@H](OC)[C@H](OCc3ccccc3)[C@@H](OCc3ccccc3)[C@@H]2OCc2ccccc2)nn1`
Solution: < 4.10

Exercise: Would you kindly repeat that for `COc1nc(N)nc2c1ncn2Cc1cn(C[C@H]2O[C@H](OC)[C@H](OCc3ccccc3)[C@@H](OCc3ccccc3)[C@H]2OCc2ccccc2)nn1` ?
Solution: < 4.10

Exercise: Would you kindly repeat that for `CC(=O)OC[C@H]1O[C@H](n2cc(Cn3cnc4c(Cl)nc(N)nc43)nn2)[C@H](OC(C)=O)[C@@H](OC(C)=O)[C@@H]1OC(C)=O` ?
Solution: < 4.10
